system: Cav1.2 (voltage-dependent L-type calcium channel subunit alpha-1C) (Rattus norvegicus, UniProt P22002)
Sequence (P22002 whole entry, the tested form may be a part): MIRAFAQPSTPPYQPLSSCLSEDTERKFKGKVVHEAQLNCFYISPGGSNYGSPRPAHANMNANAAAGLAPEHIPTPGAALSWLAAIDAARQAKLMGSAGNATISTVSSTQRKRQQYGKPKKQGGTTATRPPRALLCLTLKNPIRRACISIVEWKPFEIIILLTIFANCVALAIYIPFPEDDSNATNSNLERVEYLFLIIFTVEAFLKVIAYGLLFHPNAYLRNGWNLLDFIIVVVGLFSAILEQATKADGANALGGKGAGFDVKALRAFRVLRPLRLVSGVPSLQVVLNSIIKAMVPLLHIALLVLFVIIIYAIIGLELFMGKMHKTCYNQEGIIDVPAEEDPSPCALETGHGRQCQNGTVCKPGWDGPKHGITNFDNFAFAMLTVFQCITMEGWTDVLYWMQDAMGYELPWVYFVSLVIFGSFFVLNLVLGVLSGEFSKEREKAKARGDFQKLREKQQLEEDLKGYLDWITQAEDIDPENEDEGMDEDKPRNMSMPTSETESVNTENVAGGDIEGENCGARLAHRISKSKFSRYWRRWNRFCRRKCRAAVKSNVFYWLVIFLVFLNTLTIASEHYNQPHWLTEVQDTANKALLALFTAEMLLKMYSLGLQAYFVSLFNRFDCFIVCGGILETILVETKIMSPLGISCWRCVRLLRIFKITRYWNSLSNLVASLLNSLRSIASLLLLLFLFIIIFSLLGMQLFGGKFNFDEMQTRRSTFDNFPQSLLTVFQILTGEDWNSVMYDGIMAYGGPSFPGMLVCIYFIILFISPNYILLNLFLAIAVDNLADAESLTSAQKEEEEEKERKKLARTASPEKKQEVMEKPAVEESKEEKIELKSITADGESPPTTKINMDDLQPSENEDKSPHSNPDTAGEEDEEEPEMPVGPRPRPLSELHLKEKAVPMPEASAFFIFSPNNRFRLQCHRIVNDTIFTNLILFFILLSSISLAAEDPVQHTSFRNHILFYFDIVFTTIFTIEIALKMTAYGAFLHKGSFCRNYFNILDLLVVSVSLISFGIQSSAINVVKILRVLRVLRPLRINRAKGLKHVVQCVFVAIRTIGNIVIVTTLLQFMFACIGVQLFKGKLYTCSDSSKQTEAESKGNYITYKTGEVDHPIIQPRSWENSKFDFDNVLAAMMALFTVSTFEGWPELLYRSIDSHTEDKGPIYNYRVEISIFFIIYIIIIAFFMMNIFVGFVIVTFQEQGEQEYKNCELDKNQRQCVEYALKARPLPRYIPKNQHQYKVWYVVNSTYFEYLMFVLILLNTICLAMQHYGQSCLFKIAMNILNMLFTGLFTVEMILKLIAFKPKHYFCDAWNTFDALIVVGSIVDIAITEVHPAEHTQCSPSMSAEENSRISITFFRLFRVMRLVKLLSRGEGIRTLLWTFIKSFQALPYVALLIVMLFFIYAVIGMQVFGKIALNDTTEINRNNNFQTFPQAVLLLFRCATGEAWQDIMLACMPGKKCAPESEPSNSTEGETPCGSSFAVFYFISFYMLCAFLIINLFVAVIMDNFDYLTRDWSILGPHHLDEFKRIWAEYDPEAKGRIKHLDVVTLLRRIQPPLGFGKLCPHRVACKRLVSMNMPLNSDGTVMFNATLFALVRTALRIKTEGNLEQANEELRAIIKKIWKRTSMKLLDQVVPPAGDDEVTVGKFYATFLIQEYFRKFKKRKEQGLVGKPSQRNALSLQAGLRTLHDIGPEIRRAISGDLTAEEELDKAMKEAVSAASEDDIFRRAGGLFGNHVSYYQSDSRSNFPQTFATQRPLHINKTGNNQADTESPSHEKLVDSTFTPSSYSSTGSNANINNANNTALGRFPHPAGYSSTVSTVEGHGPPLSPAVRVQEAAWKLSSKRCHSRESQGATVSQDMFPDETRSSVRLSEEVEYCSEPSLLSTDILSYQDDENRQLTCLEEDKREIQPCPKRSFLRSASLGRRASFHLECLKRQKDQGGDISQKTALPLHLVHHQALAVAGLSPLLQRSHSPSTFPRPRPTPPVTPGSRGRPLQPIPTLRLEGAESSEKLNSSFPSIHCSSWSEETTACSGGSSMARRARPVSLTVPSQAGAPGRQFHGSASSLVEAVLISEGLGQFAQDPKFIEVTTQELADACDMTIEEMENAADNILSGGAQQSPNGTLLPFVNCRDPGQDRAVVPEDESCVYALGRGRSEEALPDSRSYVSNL
protocol_description: Inhibition of GFP-fused rat Cav1.2 expressed in human tsA-201 cells co-expressing Cavbeta1b/Cavalpha2delta1 assessed as tonic block at 10 uM at holding potential of -90 mV by whole cell patch clamp method relative to control
Type: cell-based
Property: inhibition at 10 µM; scope: individual compounds

Ask: Find the recorded inhibition at 10 µM belonging to CCOC(=O)C1=C(C)NC(=O)N(CCC(=O)N/N=C\C=C\c2ccccc2)C1c1cccc([N+](=O)[O-])c1 (stereo not drawn) and report it.
Result: 60 to 85%

Ask: Find the recorded inhibition at 10 µM belonging to CCOC(=O)C1=C(C)NC(=O)N(CCC(=O)N/N=C(/C)CC(c2ccccc2)c2ccccc2)C1c1cccc([N+](=O)[O-])c1 (stereo not drawn) and report it.
Result: 60 to 85%

Ask: Find the recorded inhibition at 10 µM belonging to CCOC(=O)C1=C(C)NC(=O)N(CCC(=O)N/N=C/c2ccc(F)cc2)C1c1cccc([N+](=O)[O-])c1 (stereo not drawn) and report it.
Result: 60 to 85%

Ask: Find the recorded inhibition at 10 µM belonging to CCOC(=O)C1=C(C)NC(=O)N(CCC(=O)N/N=C(/C)c2ccccc2)C1c1cccc([N+](=O)[O-])c1 (stereo not drawn) and report it.
Result: 60 to 85%

Further cases:
Ask: Find the recorded inhibition at 10 µM belonging to CCOC(=O)C1=C(C)NC(=O)N(CCC(=O)NNS(=O)(=O)c2ccccc2)C1c1cccc([N+](=O)[O-])c1 (stereo not drawn) and report it.
Result: 50%

Ask: Find the recorded inhibition at 10 µM belonging to CCOC(=O)C1=C(C)NC(=O)N(CCC(=O)N/N=C/c2ccccc2)C1c1cccc([N+](=O)[O-])c1 (stereo not drawn) and report it.
Result: 60 to 85%

Ask: Find the recorded inhibition at 10 µM belonging to CCOC(=O)C1=C(C)NC(=O)N(CCC(=O)N/N=C(/C)c2ccc(F)cc2)C1c1cccc([N+](=O)[O-])c1 (stereo not drawn) and report it.
Result: 60 to 85%

Ask: Find the recorded inhibition at 10 µM belonging to CCOC(=O)C1=C(C)NC(=O)N(CCC(=O)N/N=C2/C(=O)Nc3ccccc32)C1c1cccc([N+](=O)[O-])c1 (stereo not drawn) and report it.
Result: 50%
